Recorded values, source patent US8022217B2.

# target: recombinant CETP (Homo sapiens)
# test-name: CETP in-vitro assay (Scintillation Proximity Assay, transfer of [3H] cholesteryl ester from HDL to biotinylated LDL)
# Type: biochemical
# details: 10 μmole concentration
Label TRUE when inhibition at 10 µM >= 80%; otherwise FALSE.

// below: answered molecules
INSERT INTO measurements (smiles_structure, classification) VALUES
  ('CC(C)(C)c1ccc(CN(CCc2cccc3ccccc23)C(=O)c2cccc3c2NCCC3)cc1', 'TRUE'),
  ('CC(C)(C)c1ccc(CN(CCc2ccc(F)c(F)c2)C(=O)c2cc(Cl)cc3c2NCCC3)cc1', 'TRUE'),
  ('CC(C)(C)c1ccc(CN(CCc2ccc(O[Si](C)(C)C)cc2)C(=O)c2cccc3c2NCCC3)cc1', 'FALSE'),
  ('CC(C)(C)c1ccc(CN(CCc2ccc(Cl)c(F)c2)C(=O)c2cc(Cl)cc3c2NCCC3)cc1', 'TRUE'),
  ('CC(C)(C)c1ccc(CN(CCc2cccc(Cl)c2)C(=O)c2cccc3c2NCCC3)cc1', 'FALSE');

hey, is inhibition at 10 µM for this one >= 80%? CC(C)(C)c1ccc(CN(CCc2ccc(F)cc2)C(=O)c2cccc3c2NCCC3)cc1
FALSE

Evaluate CC(C)(C)c1ccc(CN(CCc2ccccc2F)C(=O)c2cccc3c2NCCC3)cc1 : inhibition at 10 µM at minimum 80%?
TRUE

Does inhibition at 10 µM meet or surpass 80% for Cc1ccc(CN(CCc2ccc(Cl)c(Cl)c2)C(=O)c2cccc3c2NCCC3)cc1 ?
TRUE

Evaluate CC(C)(C)c1ccc(CN(CCc2ccc(O)cc2)C(=O)c2cccc3c2NCCC3)cc1 : inhibition at 10 µM at minimum 80%?
TRUE

----------
# target: recombinant CETP (Homo sapiens, UniProt P11597)
# Sequence (P11597 18-493): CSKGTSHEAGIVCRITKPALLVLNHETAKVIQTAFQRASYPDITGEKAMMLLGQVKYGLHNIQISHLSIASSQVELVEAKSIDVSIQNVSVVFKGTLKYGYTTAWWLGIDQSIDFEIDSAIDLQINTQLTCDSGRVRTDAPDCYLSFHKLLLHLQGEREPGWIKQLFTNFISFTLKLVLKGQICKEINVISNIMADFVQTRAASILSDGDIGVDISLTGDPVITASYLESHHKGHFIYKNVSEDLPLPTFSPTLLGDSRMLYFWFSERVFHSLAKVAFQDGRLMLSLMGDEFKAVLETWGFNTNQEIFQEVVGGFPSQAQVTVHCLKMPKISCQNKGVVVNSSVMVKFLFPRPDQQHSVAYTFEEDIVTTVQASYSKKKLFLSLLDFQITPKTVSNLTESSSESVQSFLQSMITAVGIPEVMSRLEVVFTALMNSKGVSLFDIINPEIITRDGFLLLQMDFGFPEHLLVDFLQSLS
# test-name: CETP in-vitro assay (Scintillation Proximity Assay, transfer of [3H] cholesteryl ester from HDL to biotinylated LDL)
# Format: biochemical
# details: 10 μmole concentration
Entry flag: 1 if inhibition at 10 µM reaches 80%; 0 if it does not.

Record excerpt, results attached:
INSERT INTO results (smiles_structure, classification) VALUES
  ('CC(C)(C)c1ccc(CN(Cc2cccc(Cl)c2)C(=O)c2cccc3c2NCCC3)cc1', 0),
  ('COc1ccc(CCN(Cc2ccc(C(C)(C)C)cc2)C(=O)c2cccc3c2NCCC3)cc1', 1);

Determine whether measured inhibition at 10 µM meets or exceeds 80% for O=C(c1cccc2c1NCCC2)N(CCc1ccc(F)cc1)Cc1ccc(C(F)(F)F)cc1
0
